# Assay Summary: Total recovery rate in urine and bile upon oral administration to rats
# Assay type: in vivo, male SD rats
# Measurement Context: rat, 20 mg/kg or 10 mg/kg, urine plus bile, 0-24 hours
Reported Endpoint: dose excreted at 24 h (%)
Answers are plain numbers, in %.

Illustrative cases are given below, each with its answer.
{"Molecule": "C[C@H]1COc2c(N3CCN(C)CC3)c(F)cc3c(=O)c(C(=O)O)cn1c23 [Levofloxacin, reference compound]", "Scale Unit": "%", "Endpoint Result": 83.2}
{"Molecule": "NC1CCN(c2nc3c(cc2F)c(=O)c(C(=O)O)cn3-c2ccc(F)cc2F)C1 (stereo not drawn) [Tosufloxacin, reference compound]", "Scale Unit": "%", "Endpoint Result": 40.5}
{"Molecule": "CNc1c(F)cc2c(=O)c(C(=O)O)cn(-c3cc(N)c(F)cc3F)c2c1Cl", "Scale Unit": "%", "Endpoint Result": 107}

Hey, quick one: what's dose excreted at 24 h for each of these?
1. Nc1cc(-n2cc(C(=O)O)c(=O)c3cc(F)c(N)c(Cl)c32)c(F)cc1F
2. Cc1c(N)c(F)cc2c(=O)c(C(=O)O)cn(-c3cc(N)c(F)cc3F)c12
3. Nc1cc(-n2cc(C(=O)O)c(=O)c3cc(F)c(N4CC(N)C4)c(Cl)c32)c(F)cc1F [Referential compound, reference compound]

1: 113; 2: 97.3; 3: 21.5

----------
# Assay Summary: Urinary recovery rate upon oral administration to rats
# Type: in vivo, male SD rats
# Measurement Context: urine, rat, 20 mg/kg or 10 mg/kg, 6-24 hours, paper disk method
Lab note - cut at 10% for dose excreted at 24 h: MET if strictly below, NOT MET if not.

{"Molecule": "C[C@H]1COc2c(N3CCN(C)CC3)c(F)cc3c(=O)c(C(=O)O)cn1c23 [Levofloxacin, reference compound]", "Classification": "NOT MET"}
{"Molecule": "Nc1cc(-n2cc(C(=O)O)c(=O)c3cc(F)c(N)c(Cl)c32)c(F)cc1F [Example 11]", "Classification": "NOT MET"}
{"Molecule": "Nc1cc(-n2cc(C(=O)O)c(=O)c3cc(F)c(N4CC(N)C4)c(Cl)c32)c(F)cc1F [Referential compound, reference compound]", "Classification": "MET"}
{"Molecule": "NC1CCN(c2nc3c(cc2F)c(=O)c(C(=O)O)cn3-c2ccc(F)cc2F)C1 (stereo not drawn) [Tosufloxacin, reference compound]", "Classification": "NOT MET"}
{"Molecule": "Cc1c(N)c(F)cc2c(=O)c(C(=O)O)cn(-c3cc(N)c(F)cc3F)c12 [Example 12]", "Classification": "NOT MET"}

Kindly consider the entry below.
I'd appreciate it if you could check whether CNc1c(F)cc2c(=O)c(C(=O)O)cn(-c3cc(N)c(F)cc3F)c2c1Cl [Example 14] has dose excreted at 24 h smaller than 10%.
MET

----------
# Assay Summary: Biliary recovery rate upon oral administration to rats
# Format: in vivo, male SD rats
# Measurement Context: bile, rat, 20 mg/kg or 10 mg/kg, 0-24 hours, after hydrolysis with the alkali
Reported Endpoint: dose excreted at 24 h (%)
Answers are plain numbers, in %.

{"Molecule": "CNc1c(F)cc2c(=O)c(C(=O)O)cn(-c3cc(N)c(F)cc3F)c2c1Cl", "Endpoint Result": 103}
{"Molecule": "NC1CCN(c2nc3c(cc2F)c(=O)c(C(=O)O)cn3-c2ccc(F)cc2F)C1 (stereo not drawn) [Tosufloxacin, reference compound]", "Endpoint Result": 9.2}
{"Molecule": "C[C@H]1COc2c(N3CCN(C)CC3)c(F)cc3c(=O)c(C(=O)O)cn1c23 [Levofloxacin, reference compound]", "Endpoint Result": 48.3}

I would be grateful if you could provide dose excreted at 24 h for each of the following entries.
1. Nc1cc(-n2cc(C(=O)O)c(=O)c3cc(F)c(N)c(Cl)c32)c(F)cc1F
2. Nc1cc(-n2cc(C(=O)O)c(=O)c3cc(F)c(N4CC(N)C4)c(Cl)c32)c(F)cc1F [Referential compound, reference compound]
3. Cc1c(N)c(F)cc2c(=O)c(C(=O)O)cn(-c3cc(N)c(F)cc3F)c12

1: 90; 2: 11.1; 3: 81.7
